# target: immunoproteasome LMP2 subunit (Homo sapiens)
# protocol.description: Caliper-based proteasome enzymatic activity assay, LMP2
# test.settings: human recombinant immunoproteasome 0.3 nM, FAM peptide substrate 1 μM, rt 2 h
pIC50: −log10 of the molar value.
parameter.measured: pIC50

Some solved cases for reference:
Fill in: pIC50 of Cc1ccc(C[C@H](NC(=O)OCCc2cccc(C=C(C#N)C(=O)N3[C@H](C)COC[C@H]3C)c2)B(O)O)cc1 [Example 85] is ___
< 5.30

Fill in: pIC50 of CN(CC(F)(F)F)C(=O)C(C#N)=Cc1cccc(CCOC(=O)N[C@@H](Cc2ccccc2)B(O)O)c1 [Example 91] is ___
< 5.30

Attention now turns to another entry.
Fill in: pIC50 of Cc1ccc(C[C@H](NC(=O)OCCc2cccc(C=C(C#N)C(=O)N3[C@@H](C)COC[C@@H]3C)c2)B(O)O)cc1 [Example 92] is ___
< 5.30

* * *

# target: immunoproteasome LMP7/B5i subunit (Homo sapiens, UniProt P28062)
# protocol.description: Caliper-based proteasome enzymatic activity assay, LMP7
# test.settings: human recombinant immunoproteasome 0.3 nM, FAM peptide substrate 1 μM, rt 3 h
Items are presented alongside their recorded IC50.
The answer is to be given in nM; state only the numeric part.

Fill in: IC50 of N#CC(=Cc1cccc(CCOC(=O)N[C@@H](Cc2coc3ccccc23)B(O)O)c1)c1ccccn1 [Example 35] is ___
2

Fill in: IC50 of CN(C)C(=O)C(C#N)=Cc1cccc(CCOC(=O)N[C@@H](Cc2ccccc2)B(O)O)c1 [Example 17] is ___
8

Attention now turns to another entry.
Fill in: IC50 of Cc1ccc(C[C@H](NC(=O)NCCc2cccc(C=C(C#N)c3ncccn3)c2)B(O)O)cc1 [Example 83] is ___
37

* * *

Items are presented alongside their recorded IC50.
# target: immunoproteasome LMP2 subunit (Homo sapiens)
# protocol.description: Caliper-based proteasome enzymatic activity assay, LMP2
# test.settings: human recombinant immunoproteasome 0.3 nM, FAM peptide substrate 1 μM, rt 2 h

Fill in: IC50 of CN(C)C(=O)C(C#N)=Cc1cccc(CCOC(=O)N[C@@H](Cc2coc3ccccc23)B(O)O)c1 is ___
> 5 µM

Fill in: IC50 of Cc1ccc(C[C@H](NC(=O)OCCc2cccc(C=C(C#N)c3ccc(C(F)(F)F)cn3)c2)B(O)O)cc1 is ___
2.83 µM

Fill in: IC50 of CC(C)(C)NC(=O)C(C#N)=Cc1cccc(OCCC(=O)N[C@@H](CCc2ccccc2)B(O)O)c1 is ___
> 5 µM

Attention now turns to another entry.
Fill in: IC50 of CCN(C(=O)C(C#N)=Cc1cccc(CCOC(=O)N[C@@H](Cc2ccc(C)cc2)B(O)O)c1)C1CCOCC1 is ___
> 5 µM
